system: A. flavus MMX 5948; experiment: MIC/MEC assay (CLSI microdilution); assay type: cell-based; settings: Aspergillus flavus, MMX5948, 48 h, RPMI plus 0.002% Tween-80, read-out: MIC
Numbered stars: 1 amine (or outer) side, 2 acyl side, 3 side chain; on linkers, the order of the positions; unused ones are H or OH. Square brackets hold non-standard residues; d marks the D form. Peptide text beside a SMILES is read from it. X10 = CN([C@@H](Cc1cccc(-c2ccc(N3CCNCC3)nc2)c1)C(=O)[*:2])[*:1]; Hmp(2R,3S) = CC[C@H](C)[C@@H](O)C(=O)O; NMeVal(β-OH) = CN[C@H](C(=O)O)C(C)(C)O; NMeV = CN[C@H](C(=O)O)C(C)C
MEASURED ATTRIBUTE: MIC (µg/mL)
Output spec: scalar in µg/mL, unitless text.

// MIC value for CC[C@H](C)[C@@H]1NC(=O)[C@@H]2CCCN2C(=O)[C@H](Cc2cccc(-c3ccc(N4CCNCC4)nc3)c2)N(C)C(=O)[C@H](Cc2ccccc2)NC(=O)[C@H](C(C)C)N(C)C(=O)[C@@H]([C@@H](C)CC)OC(=O)[C@H](C(C)(C)O)N(C)C(=O)[C@H](CC(C)C)NC(=O)[C@H](C(C)C)N(C)C1=O [Compound 30] (cyclo(F[X10]PI[NMeV]L[NMeVal(β-OH)][Hmp(2R,3S)][NMeV])) : 0.5

====

tested on: A. fumigatus MMX 5280 ATCC MYA-3626; test: MIC/MEC assay (CLSI microdilution); format: cell-based, Aspergillus fumigatus; conditions: Aspergillus fumigatus, 48 h, Without Tween-80, read-out: MEC
Numbered stars: 1 amine (or outer) side, 2 acyl side, 3 side chain; on linkers, the order of the positions; unused ones are H or OH. Square brackets hold non-standard residues; d marks the D form. Peptide text beside a SMILES is read from it. X33 = CN([C@@H](Cc1cccc(-c2ccc3ccccc3c2)c1)C(=O)[*:2])[*:1]; Hmp(2R,3S) = CC[C@H](C)[C@@H](O)C(=O)O; NMeVal(β-OH) = CN[C@H](C(=O)O)C(C)(C)O; NMeV = CN[C@H](C(=O)O)C(C)C
MEASURED ATTRIBUTE: minimal effective concentration (µg/mL)
Output spec: scalar in µg/mL, unitless text.

// minimal effective concentration value for CC[C@H](C)[C@@H]1NC(=O)[C@@H]2CCCN2C(=O)[C@H](Cc2cccc(-c3ccc4ccccc4c3)c2)N(C)C(=O)[C@H](Cc2ccccc2)NC(=O)[C@H](C(C)C)N(C)C(=O)[C@@H]([C@@H](C)CC)OC(=O)[C@H](C(C)(C)O)N(C)C(=O)[C@H](CC(C)C)NC(=O)[C@H](C(C)C)N(C)C1=O [Compound 5] (cyclo(F[X33]PI[NMeV]L[NMeVal(β-OH)][Hmp(2R,3S)][NMeV])) : 4

====

system: A. niger MMX 0624 ATCC 16888; test: MIC/MEC assay (CLSI microdilution); assay type: cell-based; settings: Aspergillus niger, ATCC16888, 48 h, RPMI plus 0.002% Tween-80, read-out: MIC
Numbered stars: 1 amine (or outer) side, 2 acyl side, 3 side chain; on linkers, the order of the positions; unused ones are H or OH. Square brackets hold non-standard residues; d marks the D form. Peptide text beside a SMILES is read from it. X15 = CN([C@@H](Cc1cccc(-c2ccc(N3CCOCC3)nc2)c1)C(=O)[*:2])[*:1]; Hmp(2R,3S) = CC[C@H](C)[C@@H](O)C(=O)O; NMeVal(β-OH) = CN[C@H](C(=O)O)C(C)(C)O; NMeV = CN[C@H](C(=O)O)C(C)C
MEASURED ATTRIBUTE: log10(MIC) (log10 of the value in µg/mL)
Short version: log10 scale, MIC, µg/mL.

Test item CC[C@H](C)[C@@H]1NC(=O)[C@@H]2CCCN2C(=O)[C@H](Cc2cccc(-c3ccc(N4CCOCC4)nc3)c2)N(C)C(=O)[C@H](Cc2ccccc2)NC(=O)[C@H](C(C)C)N(C)C(=O)[C@@H]([C@@H](C)CC)OC(=O)[C@H](C(C)(C)O)N(C)C(=O)[C@H](CC(C)C)NC(=O)[C@H](C(C)C)N(C)C1=O [Compound 24] (cyclo(F[X15]PI[NMeV]L[NMeVal(β-OH)][Hmp(2R,3S)][NMeV])) ; A. niger MMX 0624 ATCC 16888; reported log10(MIC) was -0.60

====

Items are presented alongside their recorded MIC.
tested on: C. albicans MMX 2000 ATCC 10231; assay: MIC assay (CLSI microdilution); format: cell-based; conditions: Candida albicans, ATCC10231, RPMI plus 0.002% Tween-80; read-out: MIC
Numbered stars: 1 amine (or outer) side, 2 acyl side, 3 side chain; on linkers, the order of the positions; unused ones are H or OH. Square brackets hold non-standard residues; d marks the D form. Peptide text beside a SMILES is read from it. X1 = CC(C)N1CCN(c2ccc(-c3cccc(C[C@@H](C(=O)[*:2])N(C)[*:1])c3)cc2)CC1; X26 = CC1CCN(c2cnc(-c3cccc(C[C@@H](C(=O)[*:2])N(C)[*:1])c3)cn2)CC1; X2 = CN1CCN(c2ccc(-c3cccc(C[C@@H](C(=O)[*:2])N(C)[*:1])c3)cc2)CC1; X7 = CC(C)N1CCN(c2ccc(-c3cccc(C[C@H](N[*:1])C(=O)[*:2])c3)cc2)CC1; X20 = CN([C@@H](Cc1cccc(-c2cnn(C3CCCC3)c2)c1)C(=O)[*:2])[*:1]; X27 = CN([C@@H](Cc1cccc(-c2cccc3ccccc23)c1)C(=O)[*:2])[*:1]; Hmp(2R,3S) = CC[C@H](C)[C@@H](O)C(=O)O; NMeVal(β-OH) = CN[C@H](C(=O)O)C(C)(C)O; NMeV = CN[C@H](C(=O)O)C(C)C
Output spec: scalar in µg/mL, unitless text.

Consider the following illustrative entries.
CC[C@H](C)[C@@H]1NC(=O)[C@@H]2CCCN2C(=O)[C@H](Cc2cccc(-c3ccc(N4CCN(C(C)C)CC4)cc3)c2)N(C)C(=O)[C@H](Cc2cccc(-c3ccc(N4CCN(C(C)C)CC4)cc3)c2)NC(=O)[C@H](C(C)C)N(C)C(=O)[C@@H]([C@@H](C)CC)OC(=O)[C@H](C(C)(C)O)N(C)C(=O)[C@H](CC(C)C)NC(=O)[C@H](C(C)C)N(C)C1=O [Compound 31] (cyclo(I[NMeV]L[NMeVal(β-OH)][Hmp(2R,3S)][NMeV][X7][X1]P))
0.06
CC[C@H](C)[C@@H]1NC(=O)[C@@H]2CCCN2C(=O)[C@H](Cc2cccc(-c3ccc(N4CCN(C)CC4)cc3)c2)N(C)C(=O)[C@H](Cc2ccccc2)NC(=O)[C@H](C(C)C)N(C)C(=O)[C@@H]([C@@H](C)CC)OC(=O)[C@H](C(C)(C)O)N(C)C(=O)[C@H](CC(C)C)NC(=O)[C@H](C(C)C)N(C)C1=O [Compound 19] (cyclo(F[X2]PI[NMeV]L[NMeVal(β-OH)][Hmp(2R,3S)][NMeV]))
0.015
CC[C@H](C)[C@@H]1NC(=O)[C@@H]2CCCN2C(=O)[C@H](Cc2cccc(-c3cnc(N4CCC(C)CC4)cn3)c2)N(C)C(=O)[C@H](Cc2ccccc2)NC(=O)[C@H](C(C)C)N(C)C(=O)[C@@H]([C@@H](C)CC)OC(=O)[C@H](C(C)(C)O)N(C)C(=O)[C@H](CC(C)C)NC(=O)[C@H](C(C)C)N(C)C1=O [Compound 11] (cyclo(F[X26]PI[NMeV]L[NMeVal(β-OH)][Hmp(2R,3S)][NMeV]))
0.06
CC[C@H](C)[C@@H]1NC(=O)[C@@H]2CCCN2C(=O)[C@H](Cc2cccc(-c3cccc4ccccc34)c2)N(C)C(=O)[C@H](Cc2ccccc2)NC(=O)[C@H](C(C)C)N(C)C(=O)[C@@H]([C@@H](C)CC)OC(=O)[C@H](C(C)(C)O)N(C)C(=O)[C@H](CC(C)C)NC(=O)[C@H](C(C)C)N(C)C1=O [Compound 9] (cyclo(F[X27]PI[NMeV]L[NMeVal(β-OH)][Hmp(2R,3S)][NMeV]))
0.12

// MIC value for CC[C@H](C)[C@@H]1NC(=O)[C@@H]2CCCN2C(=O)[C@H](Cc2cccc(-c3cnn(C4CCCC4)c3)c2)N(C)C(=O)[C@H](Cc2ccccc2)NC(=O)[C@H](C(C)C)N(C)C(=O)[C@@H]([C@@H](C)CC)OC(=O)[C@H](C(C)(C)O)N(C)C(=O)[C@H](CC(C)C)NC(=O)[C@H](C(C)C)N(C)C1=O [Compound 12] (cyclo(F[X20]PI[NMeV]L[NMeVal(β-OH)][Hmp(2R,3S)][NMeV])) : 0.03
